Reference source: patent US20130035256A1

Below, each entry is listed with its recorded Invention assay % stim.
biological target: chimeric M4R (RGLG-2) (Homo sapiens); construct: ID; NOs; expressed in transfected cells; test: BRET assay of the invention, cells co-expressing chimeric M4R (RGLG-2) and FP-Gγ9; type: cell-based; conditions: activity @ 30uM or 30 ug/ml; compound tested alone; normalized to maximal effect of the orthosteric agonist
readout_kind: Invention assay % stim (%)

- compound: "CCN1C(=O)C=CC1=O [N-Ethylmaleimide]"
  unit_of_measurement: "%"
  measured_number: "−3.4"
- compound: "C=C[C@@]1(C)CC(=O)[C@]2(O)[C@@]3(C)[C@@H](O)CCC(C)(C)[C@@H]3[C@H](O)[C@H](OC(C)=O)[C@@]2(C)O1"
  unit_of_measurement: "%"
  measured_number: "−5.0"
- compound: "COC(=O)C1=C(C)NC(C)=C([N+](=O)[O-])[C@@H]1c1ccccc1C(F)(F)F [(R)-(+)-Bay K 8644]"
  unit_of_measurement: "%"
  measured_number: "−8.2"
- compound: "CCOC(=O)C1=C(C)NC(=S)NC1c1cccc(O)c1 (stereo not shown)"
  unit_of_measurement: "%"
  measured_number: "−3.0"

###

Molecular target: chimeric M4R (RGLG-2) (Homo sapiens, UniProt P08173)
Construct: ID; NOs; expressed in transfected cells
Sequence (P08173 with tags, fused parts or gaps): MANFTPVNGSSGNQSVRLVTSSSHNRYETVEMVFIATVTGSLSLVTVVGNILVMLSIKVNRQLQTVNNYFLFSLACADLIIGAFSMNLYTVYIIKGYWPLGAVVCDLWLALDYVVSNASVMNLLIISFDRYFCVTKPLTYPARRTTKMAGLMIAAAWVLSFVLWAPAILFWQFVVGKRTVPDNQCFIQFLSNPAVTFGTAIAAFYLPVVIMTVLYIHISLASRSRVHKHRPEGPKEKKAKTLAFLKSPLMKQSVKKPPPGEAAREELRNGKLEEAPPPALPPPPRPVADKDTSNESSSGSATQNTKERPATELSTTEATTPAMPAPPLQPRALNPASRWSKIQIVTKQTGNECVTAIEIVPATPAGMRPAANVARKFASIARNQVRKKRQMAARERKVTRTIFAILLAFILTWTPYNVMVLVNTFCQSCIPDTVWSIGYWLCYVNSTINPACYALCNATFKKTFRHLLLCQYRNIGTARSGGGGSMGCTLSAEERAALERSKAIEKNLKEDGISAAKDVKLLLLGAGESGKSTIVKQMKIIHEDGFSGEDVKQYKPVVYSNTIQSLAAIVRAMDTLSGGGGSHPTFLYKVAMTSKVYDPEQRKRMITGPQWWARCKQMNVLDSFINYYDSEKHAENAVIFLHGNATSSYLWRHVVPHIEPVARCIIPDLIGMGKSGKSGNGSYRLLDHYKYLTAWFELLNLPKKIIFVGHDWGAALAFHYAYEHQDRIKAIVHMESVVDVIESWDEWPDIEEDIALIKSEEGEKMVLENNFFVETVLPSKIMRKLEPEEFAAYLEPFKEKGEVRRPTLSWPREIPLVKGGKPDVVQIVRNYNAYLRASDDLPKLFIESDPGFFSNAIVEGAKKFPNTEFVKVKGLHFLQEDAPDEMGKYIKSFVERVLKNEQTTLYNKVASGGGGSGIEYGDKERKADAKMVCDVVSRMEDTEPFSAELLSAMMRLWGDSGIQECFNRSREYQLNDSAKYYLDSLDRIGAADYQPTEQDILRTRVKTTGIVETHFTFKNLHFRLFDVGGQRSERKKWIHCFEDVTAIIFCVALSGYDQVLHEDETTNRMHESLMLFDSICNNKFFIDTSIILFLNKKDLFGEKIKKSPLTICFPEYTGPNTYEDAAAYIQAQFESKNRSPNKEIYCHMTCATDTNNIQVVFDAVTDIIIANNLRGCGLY
Test: BRET assay of the invention, cells co-expressing chimeric M4R (RGLG-2) and FP-Gγ9
Format: cell-based
Settings: activity @ 30uM or 30 ug/ml; in presence of EC20 value of Ach; normalized to maximal effect of the orthosteric agonist
Description: The same cells as described for FIG. 10 A were used. […] The decrease of the signal below baseline in the PTX-treated condition confirms a constitutive activity that has been described for the M4R. […] A typical experiment has the following sequence. The assay of the present invention was compared with a state of the art calcium based assay. […] In calcium-based assay, a calcium flux is measured in cells co-expressing recombinant M4R and modified Gαq. […]

- compound: "CCN1C(=O)C=CC1=O [N-Ethylmaleimide]"
  Invention assay % enh, %: 12.4
- compound: "CCCCCC(O)/C=C/C=O (centres unmarked) [4-Hydroxynonenal]"
  Invention assay % enh, %: "−3.5"
- compound: "NCCOB(c1ccccc1)c1ccccc1"
  Invention assay % enh, %: 6.3
- compound: "COC(=O)C1=C(C)NC(C)=C(C(=O)OC)C1c1ccccc1[N+](=O)[O-]"
  Invention assay % enh, %: 5.3
- compound: "C[C@H]1CCC/C=C/[C@@H]2C[C@H](O)C[C@H]2[C@H](O)/C=C/C(=O)O1"
  Invention assay % enh, %: "−1.9"

###

molecular target: chimeric M4R (RGLG-2) (Homo sapiens, UniProt P08173); construct: ID; NOs; expressed in transfected cells; assay: BRET assay of the invention, cells co-expressing chimeric M4R (RGLG-2) and FP-Gγ9; type: cell-based; settings: increasing concentrations of ligand

- compound: "CCNC(=O)[C@H]1O[C@@H](n2cnc3c(N)ncnc32)[C@H](O)[C@@H]1O [NECA, 5′-N-ethylcarboxamidoadenosine]"
  activation of the chimeric M4R (BRET): "lack of activation"
- compound: "C[N+](C)(C)CCOC(N)=O [carbachol]"
  activation of the chimeric M4R (BRET): "activation"
- compound: "CC(C)NCC(O)c1ccc(O)c(O)c1 (centres unmarked) [isoproterenol]"
  activation of the chimeric M4R (BRET): "lack of activation"
- compound: "Nc1ncnc2c1ncn2[C@@H]1O[C@H](COP(=O)(O)OP(=O)(O)OP(=O)(O)O)[C@@H](O)[C@H]1O [ATP]"
  activation of the chimeric M4R (BRET): "lack of activation"
- compound: "COc1nc2sc(C(=O)NC3CC3)c(N)c2c(C)c1Cl [LY2033298]"
  activation of the chimeric M4R (BRET): "activation"
